Test system: SF-295
measurement.protocol: NCI tumour cell line growth inhibition, 48 h
The source made the active and inactive calls. No stated cut-off is given here; in the data, active = GI50 up to about 1.1 µM and inactive = higher.
measured.quantity: GI50

Recorded GI50, per entry:
[[record]]
compound = "CC1CCC(=O)C(C(O)CC2CC(=O)N(c3ccccc3)C(=O)C2)C1 (stereo not given)"
readout_value = "> 100 µM (inactive)"

[[record]]
compound = "COc1cc(O)c2c(c1)C(=O)C1=C(C2=O)C(O)C[C@@](C)(O)C1 (stereo not given in full)"
readout_value = "2.58 µM (inactive)"

[[record]]
compound = "CCOc1ccc2c(c1)[n+]([O-])c(-c1nc3ccccc3s1)c(N)[n+]2[O-]"
readout_value = "50 µM (inactive)"

[[record]]
compound = "C[C@]12CCC(=O)C=C1CC[C@@H]1C2CC[C@]2(C)NC(=O)C(C#N)CC12 (stereo not given in full)"
readout_value = "> 100 µM (inactive)"

[[record]]
compound = "O=c1[nH]nc2ccccc2c1Cc1ccccc1"
readout_value = "> 100 µM (inactive)"

[[record]]
compound = "NCC(O)CN.Oc1c(Cl)c(Cl)c(Cl)c(Cl)c1Cl"
readout_value = "17.6 µM (inactive)"


Item under review: "CCCCCCOP(=O)(OCCCCCC)C(NC(=O)OCC)(C(F)(F)F)C(F)(F)F" . Reported GI50?
30.3 µM (inactive)

Now this one: "C[C@]12CC[C@H](O)C[C@H]1CC[C@@H]1[C@@H]2CC[C@]2(C)[C@@H](C3=CC(=O)OC3)CC[C@]12O"
0.0473 µM (active)

* * *

System: OVCAR-4
measurement.protocol: NCI tumour cell line growth inhibition, 48 h
Calls of active or inactive are those of the source. Cut-off read from the data, not from the text of the source: active = GI50 up to about 1.1 µM and inactive = higher.
measured.quantity: GI50

Item under review: CCC1(O)CN(CCOC)[C@H]2C[C@@H]1C(=O)c1[nH]c3ccccc3c12 (stereo not given in full) . Reported GI50?
> 100 µM (inactive)

Now this one: "Cc1nc2ccccc2c(-n2cccn2)c1CCn1cccn1"
23.8 µM (inactive)

Now this one: "CCCCCC[N+](C)(C)Cc1ccc(C[N+](C)(C)CCCCCC)cc1"
4.58 µM (inactive)

Now this one: CC1CC/C(=C\c2ccc(F)cc2)C2=C1C(c1ccc(F)cc1)n1c(s/c(=C\c3ccc(Cl)cc3)c1=O)=N2 (stereo not given)
> 100 µM (inactive)

Now this one: "O=c1c2ccccc2n2n1Cc1ccccc1C2"
> 100 µM (inactive)

* * *

Overview of recorded GI50 for various compounds
Tested on: M19-MEL
measurement.protocol: NCI tumour cell line growth inhibition, 48 h
The source made the active and inactive calls. Rule as the data show it: active = GI50 up to about 1.1 µM and inactive = higher.

Recorded GI50, per entry:
[[record]]
compound = "O=C(NCCNCCO)N/N=C/c1cccc([N+](=O)[O-])c1"
readout_value = "> 100 µM (inactive)"

[[record]]
compound = "CCOc1ccc2c(c1)[n+]([O-])c(-c1nc3ccccc3s1)c(N)[n+]2[O-]"
readout_value = "> 100 µM (inactive)"

[[record]]
compound = "CC(C)(O)/C=C/C(=O)[C@](C)(O)[C@H]1[C@H](O)C[C@@]2(C)[C@@H]3CC=C4[C@@H](C[C@H](O)C(=O)C4(C)C)[C@]3(C)C(=O)C[C@]12C"
readout_value = "0.391 µM (active)"

[[record]]
compound = "Oc1nc(CC(O)c2ccc(Cl)c(Cl)c2)cc(-c2ccccc2)n1 (stereo not drawn)"
readout_value = "44.3 µM (inactive)"

[[record]]
compound = "COc1ccc2oc(-c3cccnc3)cc(=O)c2c1"
readout_value = "> 100 µM (inactive)"


So what GI50 did "Cc1c(C(=O)/C=C/c2c(Cl)cccc2Cl)c(=O)n(-c2ccccc2)n1C" get with M19-MEL?
8.55 µM (inactive)

Now this one: Cc1ccc(C2[C@H]3C(=O)N(c4ccc(Cc5ccc(N6C(=O)[C@@H]7ON(c8ccccc8)C(c8ccc(C)cc8)[C@@H]7C6=O)cc5)cc4)C(=O)[C@H]3ON2c2ccccc2)cc1 (stereo partly drawn)
> 100 µM (inactive)

Now this one: "Cc1cc(N(CCC#N)CCC#N)ccc1/N=N/c1cc(Cl)ccc1Cl"
13.7 µM (inactive)

Now this one: NC(CCCC(N)P(=O)(O)c1ccccc1)P(=O)(O)c1ccccc1 (stereo not drawn)
> 261 µM (inactive)

Now this one: "CC1=C(C(=O)Nc2cccc(C(F)(F)F)c2)C(c2ccc(O)cc2)C(C(=O)Nc2cccc(C(F)(F)F)c2)=C(C)N1"
16.4 µM (inactive)

* * *

Overview of recorded GI50 for various compounds
Test system: HCT-15
measurement.protocol: NCI tumour cell line growth inhibition, 48 h
Give a bare numeral; the unit µM is implied.

[[record]]
structure_smiles = "Cc1cc(C)c2c(=O)n(CN3CCN(c4ccccc4)CC3)sc2n1"
subject_of_test = "HCT-15"
readout_value = 22.5


Item under review: "Oc1ccc(-c2nc3ccc4ccccc4c3c3c2CCCC3)c(O)c1" . Reported GI50?
26.5

Now this one: "Cc1ccc(/C=N/Nc2nc3ccccc3s2)s1"
19.4

* * *

System: MDA-N
measurement.protocol: NCI tumour cell line growth inhibition, 48 h
Activity calls are given as the source filed them. Cut-off read from the data, not from the text of the source: active = GI50 up to about 1.1 µM and inactive = higher.
Choose the fitting class; nothing outside active, inactive is accepted.

[[record]]
molecule = "COc1ccc2cc(CNCCCCCCNCc3ccc4cc(OC)ccc4c3)ccc2c1"
subject_of_test = "MDA-N"
label = "active"

[[record]]
molecule = "COc1cc(C=O)cc(/C=N/c2ccc(S(N)(=O)=O)cc2)c1O"
subject_of_test = "MDA-N"
label = "inactive"

[[record]]
molecule = "C/C(=N\\N=C(/S)N1CCCCCC1)c1cccc[n+]1[O-]"
subject_of_test = "MDA-N"
label = "inactive"

[[record]]
molecule = "CCCNC(=O)Cn1c(C)cc2ccccc21"
subject_of_test = "MDA-N"
label = "inactive"

[[record]]
molecule = "COc1cc(OC)c(-c2cc(=O)c3c(OC)c(OC)c(OC)c(OC)c3o2)cc1OC"
subject_of_test = "MDA-N"
label = "inactive"

[[record]]
molecule = "CSc1c(C#N)c(N)n(-c2ccc(C)cc2)c(=O)c1C#N"
subject_of_test = "MDA-N"
label = "inactive"


Please find the next molecule below.
What did this assay record as the result for CC1=CCC2CC1C(C(=O)c1c[nH]c3ccccc13)=NC2(C)C (stereo not given) ?
inactive

* * *

Tested on: M14
measurement.protocol: NCI tumour cell line growth inhibition, 48 h
Calls of active or inactive are those of the source. No stated cut-off is given here; in the data, active = GI50 up to about 1.1 µM and inactive = higher.
Overview of recorded GI50 for various molecules

Recorded GI50, per entry:
[[record]]
molecule = "CC1OC(n2cc(F)c(=O)[nH]c2=O)CCC1O (stereo not drawn)"
subject_of_test = "M14"
measured_quantity = "GI50"
readout_value = "> 91.4 µM (inactive)"

[[record]]
molecule = "NCCSc1nc2ccccc2c(=O)n1-c1ccccc1"
subject_of_test = "M14"
measured_quantity = "GI50"
readout_value = "53.8 µM (inactive)"

[[record]]
molecule = "CC(=O)NC(CCCNC(=O)N(C)N=O)C(=O)NCc1ccccc1 (stereo not drawn)"
subject_of_test = "M14"
measured_quantity = "GI50"
readout_value = "> 100 µM (inactive)"

[[record]]
molecule = "C#C[C@H](CCCC)OC(=O)N[C@H](C)c1ccccc1"
subject_of_test = "M14"
measured_quantity = "GI50"
readout_value = "41.8 µM (inactive)"

[[record]]
molecule = "CC(C)[Si]1(C(C)C)OCC2OC(n3ccc(=O)[nH]c3=O)C(O)(CO)C2O[Si](C(C)C)(C(C)C)O1 (stereo not drawn)"
subject_of_test = "M14"
measured_quantity = "GI50"
readout_value = "19.1 µM (inactive)"


So what GI50 did COC(=O)CCc1cc(O)c2c(c1)C(C(=O)OC)C(c1ccc(O)c(O)c1)O2 (stereo not drawn) get with M14?
13.9 µM (inactive)

Now this one: CC1OC(=O)C(O)=C1O (stereo not drawn)
> 100 µM (inactive)

Now this one: "Cc1cc(C)c2c(=O)n(CN3CCN(c4ccccc4)CC3)sc2n1"
24.5 µM (inactive)

* * *

Test system: SF-268
measurement.protocol: NCI tumour cell line growth inhibition, 48 h
Calls of active or inactive are those of the source. Cut-off read from the data, not from the text of the source: active = GI50 up to about 1.1 µM and inactive = higher.
measured.quantity: GI50

Recorded GI50, per entry:
[[record]]
molecule = "COC1(OC)C(N(C)C)=C(Cl)C(=O)/C1=C/C=O"
readout_value = "> 100 µM (inactive)"

[[record]]
molecule = "CCC(C)C(=O)c1c(O)c(C/C=C(\\C)CCC=C(C)C)c(O)c2c(C(O)CC)cc(=O)oc12 (centres undefined)"
readout_value = "1.9 µM (inactive)"

[[record]]
molecule = "CC/C=C/C[C@H](O[Si](C)(C)C(C)(C)C)[C@H]1C[C@H]2O[C@H]([C@@H](O)C#C[Si](C)(C)C)C[C@H]2O1"
readout_value = "13.8 µM (inactive)"

[[record]]
molecule = "Cc1ccc(S(=O)(=O)NC2(C=O)CCCC3CCCCC32)cc1 (centres undefined)"
readout_value = "> 100 µM (inactive)"


Item under review: "COc1ccc2cc(CN3CCC(C4CCN(Cc5ccc6cc(OC)ccc6c5)CC4)CC3)ccc2c1" . Reported GI50?
3.16 µM (inactive)

Now this one: COC(=O)C1(F)C(=O)NC(=O)NC1O (centres undefined)
> 100 µM (inactive)

Now this one: COc1cc(C=C2C(C)=NN(c3cccc(Cl)c3)C23C(Cl)C(=O)N3c2nc3ccccc3s2)ccc1O (centres undefined)
3.09 µM (inactive)

Now this one: "COCCCNC(=O)C1=C(C)NC(C)=C(C(=O)NCCCOC)C1"
> 100 µM (inactive)

Now this one: "NC(=O)c1oc([N+](=O)[O-])c(-c2ccccc2)c1-c1ccccc1"
37.6 µM (inactive)
